# System: KRas-mediated Phosphorylation of ERK in PSN1 cells
# ASSAY REMARKS: Cisbio HTRF pERK assay, PSN1 cells
# Assay type: cell-based
# RUN CONDITIONS: Homo sapiens, PSN1, 3 h, 3 hour compound, read-out: Inhibition (HTRF IC50 nM) of KRas-mediated Phosphorylation of ERK, PSN1
# Experimental: Inhibition of KRas Phosphorylation of ERK (HTRF) by Exemplary Compounds of Formula (I) • Cisbio HTRF Advanced pERK Assay Catalog #64AERPEH • Cell: MKN1, PSN1 • Procedure: • Day 1: Seed 6,000 cells/well −25 μl/well in 384-well white solid bottom plate; RPM1_10% FBS.
ASSAY READOUT: IC50 (nM)
I only need the number, in nM, no unit after it.

COMPOUND: N#Cc1c(N)sc2c(F)ccc(-c3c(Cl)cc4c(N5CC(CO)C5)nc(OC[C@@]56CCCN5C[C@H](F)C6)nc4c3F)c12
UNITS: nM
READOUT VALUE: 6040

COMPOUND: N#Cc1c(N)sc2c(F)ccc(-c3c(Cl)cc4c(N5C=C(CCO)CCCC5)nc(OC[C@@]56CCCN5C[C@H](F)C6)nc4c3F)c12
UNITS: nM
READOUT VALUE: 5570

COMPOUND: C[C@@]1(O)COCCN(c2nc(OC[C@@]34CCCN3C[C@H](F)C4)nc3c(F)c(-c4ccc(F)c5sc(N)c(C#N)c45)c(Cl)cc23)C1 (atropisomer, axis not shown; (aS))
UNITS: nM
READOUT VALUE: 260

Exam item: Endpoint output: IC50 of CN(C)C(=O)c1cc2n(n1)CCCN(c1nc(OC[C@@]34CCCN3C[C@H](F)C4)nc3c(F)c(-c4ccc(F)c5sc(N)c(C#N)c45)c(C4CC4)cc13)C2 . Value?
Marked response: 811

Exam item: Consider the compound N#Cc1c(N)sc2c(F)ccc(-c3c(Cl)cc4c(NC5CS(=O)(=O)C5)nc(OC[C@@]56CCCN5C[C@H](F)C6)nc4c3F)c12 and give its measured IC50.
Marked response: 5110
